- method_notes: NCI Yeast Anticancer Drug Screen. Data for the mec2-1 strain (AID 157)
- conditions_used: S. cerevisiae mec2-1 strain, at 50.0 µM, hits give high values
About 79,000 compounds went through this panel and 15% of them were active in at least one assay; those are over-represented in the sample as a whole.
attribute_measured: growth inhibition (%)
Numbers only; they are read as %.

# example entries with known answers
Qu. Entry under review: CCC(=O)NC1CCCCC1 . Reported growth inhibition?
Ans. 3.5

Qu. And COC(=O)/C=C/CCCC1CCCCC1 ?
Ans. -3.85

Qu. And CCCS(CCC)=NS(=O)(=O)c1ccc(C)cc1 ?
Ans. -0.7

Qu. And Cc1cc(Br)ccc1Br ?
Ans. 19.3

Qu. And O=C(O)CN(CCCCN(CC(=O)O)CC(=O)O)CC(=O)O ?
Ans. -15.8

Next:
Qu. Entry under review: O=S(=O)(OCCCCCCCCCCOS(=O)(=O)c1ccc(Cl)cc1)c1ccc(Cl)cc1 . Reported growth inhibition?
Ans. -3.6
